Provenance of the data: patent US20260327294

- Assayed target: RSV A2 pre-F (RSV A2)
- Assay text: BLI
Observed property: Kd

Input F6-172 (antibody, V domains shown) VH: EEQLVESGGGLVQPGGSLKLSCAASGFILSDSTVHWVRQASGRGLEWVGRIANGYATSYAASVKGRFTISTDDSGNTAYLEMNSLKTEDTAVYYCTSRSVVVTDVGAGRDDYWGQGTLVTVSS VL: DIVMTQSPLSLPVTPGEPASISCRSSQSLLHRNGYNYLDWYLQKPGQSPQLLIWLGSNRASGVPDRFSGSGSGTDFTLTISRVEAEDVGVYYCMQDLQTPPTFGGGTKVEIM , output reported Kd.
< 1 pM

Input F6-115 (antibody, V domains shown) VH: QLQLHQRGAGLLKPSETLSLTCDVYGGSVSDDEWTWIRQSPGKGLEWIGQIDRTGSSNYNPSLRSRVTISPDTSNNQFSMSLTSVTAADTALYFCARGGLVVTDVGRGWDAFDVWGQGTMVTVSS VL: DIQMTQSPSSVSASVGDRITITCRASQHINNWLAWYQQKPGEAPKLLIYAASTLQRGVPSRFSGSGSGTRFTLTITSLQPEDFASYFCQQGDSFPLTFGGGTKVEIK , output reported Kd.
< 1 pM

Input F6-153 (antibody, V domains shown) VH: QVQLQQWGAGLLRPSETLSLTCAVSGVSLSGDYLTWIRQTPGKGLEWIGEINHSGSTNYNPSLKSRVTISVETSKNHFSLKMRSVTAADSALYYCARGWEYCHGTTCYSKAFDIWGQGTLVTVSS VL: DIQMTQSPSSLSASVGDRVTITCQASQDISNYLIWYQQKPGRAPKLLIFDASKLEKGVPPRFSGSGSGTYFTFTISSLQPEDFATYYCQQFHNLPVTFGGGTKLETK , output reported Kd.
< 1 pM
